# Target Or System: T1, human IL-2Rγ (common cytokine receptor γ-chain) (human, UniProt P31785 23-262, limits assumed)
# T1 construct: Recombinant protein coated on the plate or immobilised on a CM5 chip; also called hu IL-2R; CD132
# T1 sequence: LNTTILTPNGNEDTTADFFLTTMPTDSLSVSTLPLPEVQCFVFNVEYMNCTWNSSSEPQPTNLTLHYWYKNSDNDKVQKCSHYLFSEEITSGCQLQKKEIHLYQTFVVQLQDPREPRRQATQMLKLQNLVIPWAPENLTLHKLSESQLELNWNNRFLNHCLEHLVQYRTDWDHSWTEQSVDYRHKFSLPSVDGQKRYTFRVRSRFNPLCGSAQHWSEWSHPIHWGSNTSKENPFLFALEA
# Protocol Details: PE binding ELISA, periplasmic extract on coated protein
Observable: OD (PE binding ELISA) (OD450 nm)
Give the quantity in OD450 nm, number only.

Answer with the recorded OD (PE binding ELISA) for the binder listed here: 37-MP07F09 (VHH, VHH in periplasmic extract; also called FJ1427_P035MP07F09; clone nr) VHH: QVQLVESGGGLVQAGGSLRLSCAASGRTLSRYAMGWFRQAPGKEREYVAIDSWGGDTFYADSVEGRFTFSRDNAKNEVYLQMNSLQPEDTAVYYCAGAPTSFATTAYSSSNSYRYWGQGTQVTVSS 1.81

Annotate the binder FJ1427_P035MP04G07 (VHH, VHH in periplasmic extract; also called clone nr) VHH: QVQLVESGGGWVQVGESLRLSCAPSGRTFVSGIMGWFRQAPGKEREFVARIILNNNSTRYTDSVKGRFTISRDSAKNTMYLQMNTLRPEDTAVYYCAARDRYGSGNSLSPSAYDYWGQGTQVTVSS with its measured OD (PE binding ELISA). 0.863

Identify the reported OD (PE binding ELISA) for the following entry. FJ1427_P035MP04H10 (VHH, VHH in periplasmic extract; also called clone nr) VHH: QVQLVESGGGLVQAGGSLRLSCAPSGRTFVSGIMGWFRQAPGKEREFVARIILNNNSTRYIDSVKGRFTISRDSAKNTMYLQMDSLRPEDTAVYYCAARDRYGSGNSLSPSAYDYWGQGTQVTVSS 1.8

Name the recorded OD (PE binding ELISA) of the item FJ1427_P035MP04D03 (VHH, VHH in periplasmic extract; also called clone nr) VHH: EVQLVESGGGLVQAEGSLRLSCAASGRTLSRYAMGWFRQAPGKEREFVTANSWGGDTYYADSVQGRFTFSRDNAKNTVYLQMNSLQPEDTAVYYCAAAPTSFATTAYSSSNSYAYWGQGTQVTVSS in your answer. 1.66

Please give the documented OD (PE binding ELISA) of FJ1427_P035MP04A09 (VHH, VHH in periplasmic extract; also called clone nr) VHH: QVQLVESGGGLVQAGGSLRLSCAASGRTFGAVAVGWFRQVPGKEREFVAAINRNGSATKYADSAKGRFTISRDNAESPVYLQMNSLKPEDTAIYYCAADSLPYGRPYYFQTSAGEYDYWGQGTQVTVSS 1.23

Identify measured OD (PE binding ELISA) corresponding to FJ1427_P035MP04G08 (VHH, VHH in periplasmic extract; also called clone nr) VHH: QVQLVESGGGWVQVGESLRLSCAPSGRTFVSGIMGWFRQAPGKEREFVARIILNNNSTRYTDSVKGRFTISRDSAKNTMYLQMDSLRPEDTAVYYCAARDRYGSGNSLSPSAYDYWGQGTQVTVSS 1.84

Specify reported OD (PE binding ELISA) for the binder shown: FJ1427_P035MP04F07 (VHH, VHH in periplasmic extract; also called clone nr) VHH: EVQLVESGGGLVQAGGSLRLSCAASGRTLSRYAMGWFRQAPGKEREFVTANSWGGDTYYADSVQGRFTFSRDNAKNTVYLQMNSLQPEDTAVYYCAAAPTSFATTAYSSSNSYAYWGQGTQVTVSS 0.789

Note OD (PE binding ELISA) for the binder shown: FJ1427_P035MP04C02 (VHH, VHH in periplasmic extract; also called clone nr) VHH: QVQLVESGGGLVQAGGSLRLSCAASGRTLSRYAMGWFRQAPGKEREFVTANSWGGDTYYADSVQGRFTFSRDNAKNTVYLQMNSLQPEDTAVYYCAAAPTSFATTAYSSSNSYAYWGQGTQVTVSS 1
